Source listed as ChEMBL document CHEMBL5528054.

# Test system: Melanocortin receptor 4 (Homo sapiens, UniProt P32245)
# Sequence (P32245 whole entry): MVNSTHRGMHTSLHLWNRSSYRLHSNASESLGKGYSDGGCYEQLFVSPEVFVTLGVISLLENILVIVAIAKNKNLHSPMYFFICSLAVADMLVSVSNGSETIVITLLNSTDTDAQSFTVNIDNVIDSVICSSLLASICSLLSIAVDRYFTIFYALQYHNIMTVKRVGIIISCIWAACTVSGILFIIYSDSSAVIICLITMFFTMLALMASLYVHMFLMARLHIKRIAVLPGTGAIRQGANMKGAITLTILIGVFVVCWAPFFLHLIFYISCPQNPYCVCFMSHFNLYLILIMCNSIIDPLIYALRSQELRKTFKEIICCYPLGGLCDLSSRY
# Experimental details: Antagonist activity at C-terminal HA-tagged human MC4-R stably expressed in HEK293 cells co-expressing GScAMP22P cAMP reporter assessed as inhibition of alpha-MSH induced cAMP production by cell based luminescence assay
# Assay type: functional
# Condition info: read-out: IC50
Quantity kind: IC50

Use the examples below as a reference point.
{"Smiles code": "CCCC[C@H](NC(C)=O)C(=O)N[C@H]1CC(=O)NCCCC[C@@H](C(N)=O)NC(=O)CNC(=O)[C@H](Cc2c[nH]c3ccccc23)NC(=O)[C@H](CCCNC(=N)N)NC(=O)[C@@H](Cc2ccc3ccccc3c2)NC(=O)[C@@H]2C[C@H](n3cc(CCC(=O)O)nn3)CN2C1=O", "Observed measurement": "18.8 nM"}
{"Smiles code": "CCCC[C@H](NC(C)=O)C(=O)N[C@H]1CC(=O)NCCCC[C@@H](C(N)=O)NC(=O)CNC(=O)[C@H](Cc2c[nH]c3ccccc23)NC(=O)[C@H](CCCNC(=N)N)NC(=O)[C@@H](Cc2ccc3ccccc3c2)NC(=O)[C@@H]2C[C@H](n3cc(CCN)nn3)CN2C1=O", "Observed measurement": "4.48 nM"}
{"Smiles code": "CCCC[C@H](NC(C)=O)C(=O)N[C@H]1CC(=O)NCCCC[C@@H](C(N)=O)NC(=O)CNC(=O)[C@H](Cc2c[nH]c3ccccc23)NC(=O)[C@H](CCCNC(=N)N)NC(=O)[C@@H](Cc2ccc3ccccc3c2)NC(=O)[C@@H]2C[C@H](n3cc(C(C)(C)N)nn3)CN2C1=O", "Observed measurement": "5.01 nM"}

Next item in the queue.
// query Note down IC50 recorded for "CCCC[C@H](NC(C)=O)C(=O)N[C@H]1CC(=O)NCCCC[C@@H](C(N)=O)NC(=O)CNC(=O)[C@H](Cc2c[nH]c3ccccc23)NC(=O)[C@H](CCCNC(=N)N)NC(=O)[C@@H](Cc2ccc3ccccc3c2)NC(=O)[C@@H]2C[C@H](n3cc(-c4ccccn4)nn3)CN2C1=O"
// result 6.78 nM

====

# Test system: Melanocortin receptor 3 (Homo sapiens)
# Sequence (P41968 whole entry): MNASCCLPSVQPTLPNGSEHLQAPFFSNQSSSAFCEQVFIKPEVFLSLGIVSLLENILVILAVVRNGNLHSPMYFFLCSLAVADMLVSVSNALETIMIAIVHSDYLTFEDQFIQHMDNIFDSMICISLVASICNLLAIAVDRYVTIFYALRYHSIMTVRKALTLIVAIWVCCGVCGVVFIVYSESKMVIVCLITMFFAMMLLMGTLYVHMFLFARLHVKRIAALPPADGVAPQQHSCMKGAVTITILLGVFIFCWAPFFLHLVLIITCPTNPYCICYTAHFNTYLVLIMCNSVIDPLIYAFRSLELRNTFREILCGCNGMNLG
# Experimental details: Antagonist activity at C-terminal HA-tagged human MC3-R stably expressed in HEK293 cells co-expressing GScAMP22P cAMP reporter assessed as inhibition of alpha-MSH induced cAMP production by cell based luminescence assay
# Assay type: functional
# Condition info: read-out: IC50
Quantity kind: pIC50
Schema: pIC50 number; meaning minus log10 of the concentration expressed in molar units.

{"Smiles code": "CCCC[C@H](NC(C)=O)C(=O)N[C@H]1CC(=O)NCCCC[C@@H](C(N)=O)NC(=O)CNC(=O)[C@H](Cc2c[nH]c3ccccc23)NC(=O)[C@H](CCCNC(=N)N)NC(=O)[C@@H](Cc2ccc3ccccc3c2)NC(=O)[C@@H]2C[C@H](n3cc(CCC(=O)O)nn3)CN2C1=O", "Test system": "Melanocortin receptor 3 (Homo sapiens)", "pIC50": 6.89}

Could you now look at the following molecule, please?
// query Identify measured pIC50 corresponding to "CCCC[C@H](NC(C)=O)C(=O)N[C@H]1CC(=O)NCCCC[C@@H](C(N)=O)NC(=O)CNC(=O)[C@H](Cc2c[nH]c3ccccc23)NC(=O)[C@H](CCCNC(=N)N)NC(=O)[C@@H](Cc2ccc3ccccc3c2)NC(=O)[C@@H]2C[C@H](NC(=O)[C@@H](N)CCC(=O)O)CN2C1=O"
// result 8.25
